Where do these numbers come from? They come from PubChem BioAssay AID1159580.

experiment_notes: chemical genetic growth profiling, strain panel (AID 1159580);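 also: tested at 20 µM; growth read once vehicle control cultures reached saturation at 30 °C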
assay_setup: S. cerevisiae deletion strains, growth OD, locus YLR113W, strain HOG1, hits give low values
About 2,000 (36%) of roughly 5,500 compounds were called active. Not shown: some 18% with an inconclusive outcome. This is one part of the list.
In plain terms, low normalized growth, meaning strictly below 1, gives Criterion met, and everything else gives Criterion not met.

Report whether reported normalized growth is lower than 1 (strictly) for O=C(O)C1=C(CSc2nnnn2CS(=O)(=O)O)CS[C@@H]2C(NC(=O)[C@H](O)c3ccccc3)C(=O)N12 (stereo partly specified) Criterion not met

Does the reported normalized growth of Cc1cc2nc3c(=O)[nH]c(=O)nc-3n(C[C@@H](O)[C@@H](O)[C@@H](O)COP(=O)(O)O)c2cc1C stay below 1? Criterion not met

Threshold test, normalized growth < 1: O=[N+]([O-])c1cc(C(F)(F)F)ccc1Sc1n[nH]c(-c2cc(Cl)cc(Cl)c2)n1 Criterion met

For Cc1cc2nc3c(Cl)c(O)c4ccccc4c3nc2cc1C , is the recorded normalized growth below the cut-off of 1? Criterion met

Bench note: check whether O=C(NCc1ccc2c(c1)OCO2)c1cc2ccccc2s1 shows normalized growth below 1 Criterion met

Could you please tell me whether normalized growth recorded for O=C1C=C(O)c2ccccc2C1=O is less than 1? Criterion met

Problem: For the compound CC(C)[C@@H]1CC[C@@H](C)CC1=O , is normalized growth under 1? Criterion met

Just wondering, is normalized growth of CN1CCCCC1c1ccc(-c2cccnc2)nc1 (stereo unspecified) below 1? Criterion not met

I'd appreciate it if you could check whether C=CC[C@@H]1/C=C(\C)C[C@H](C)C[C@H](OC)[C@H]2O[C@@](O)(C(=O)C(=O)N3CCCC[C@H]3C(=O)O[C@H](/C(C)=C/[C@@H]3CC[C@@H](O)[C@H](OC)C3)[C@H](C)[C@@H](O)CC1=O)[C@H](C)C[C@@H]2OC has normalized growth smaller than 1. Criterion met

Confirm or reject: normalized growth of NNC(=O)c1oc2nc(-c3ccccc3)cc(-c3ccccc3)c2c1N lies strictly below 1 Criterion met

Lab note: normalized growth threshold 1. Does this compound come in strictly under it? Cc1c(NC(C)C)c(=O)n(-c2ccccc2)n1C Criterion not met

Is the reported normalized growth for O=C1C=CC(=O)c2c(O)cccc21 strictly below 1? Criterion met

# TODO verify normalized growth < 1 strictly for this compound: Cc1cc(O)c2c(c1)C(=O)c1cccc(O)c1C2=O Criterion not met

Bench note: check whether O=C1C(NCc2ccccc2)=C(NCc2ccccc2)C(=O)c2ccccc21 shows normalized growth below 1 Criterion met
